# targetOfAssay: human MC1R (Homo sapiens)
# Sequence (Q01726 whole entry): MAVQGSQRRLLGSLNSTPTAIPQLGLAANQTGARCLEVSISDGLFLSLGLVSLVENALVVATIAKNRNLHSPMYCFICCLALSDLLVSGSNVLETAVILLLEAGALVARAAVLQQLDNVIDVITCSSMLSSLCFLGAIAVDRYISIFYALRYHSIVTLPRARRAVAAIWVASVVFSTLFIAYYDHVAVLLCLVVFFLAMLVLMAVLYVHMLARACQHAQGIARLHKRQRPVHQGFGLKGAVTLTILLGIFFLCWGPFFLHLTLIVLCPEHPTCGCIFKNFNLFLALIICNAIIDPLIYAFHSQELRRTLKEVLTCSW
# assayNotes: cAMP assay (LANCE) in T-Rex-293 cells expressing MC1R
# setupConditions: cAMP assay; mean (± SEM) of at least three independent experiments; read-out: EC50 hMC1R cAMP
quantityMeasured: EC50 (µM)
Answers are plain numbers, in µM.

# compound, quantityMeasured, valueUnit, measuredNumber
measured = [
    ("CN1C(=O)[C@H]2N[C@@H](c3ccc(cc3)C(=O)NCCCC[C@@H](C(=O)N[C@@H](Cc3ccc(O)cc3)C(N)=O)NC(=O)[C@H](CC(N)=O)NC(=O)[C@H](Cc3ccccc3)NC(=O)[C@H](Cc3ccccc3)NC(=O)[C@H](CCCNC(=N)N)NC(=O)[C@@H]1Cc1ccccc1)[C@H]1C(=O)N(c3ccccc3)C(=O)[C@H]12 [J2-major, [ II-FRFFNK ]Y]", "EC50", "µM", 6.4),
]

Ask: Please look at this compound and report its EC50: C[C@@H]1NC(=O)[C@H](CC(N)=O)NC(=O)[C@@H](Cc2ccccc2)NC(=O)[C@@H](Cc2ccccc2)NC(=O)[C@H](CCCNC(=N)N)NC(=O)[C@H](Cc2ccccc2)N(C)C(=O)[C@@H]2N[C@H](c3ccc(cc3)C(=O)NCCCC[C@@H](C(=O)N[C@@H](Cc3ccc(O)cc3)C(N)=O)NC(=O)[C@H](Cc3ccccc3)NC1=O)[C@@H]1C(=O)N(C)C(=O)[C@@H]12 [C1-major, [I-FRffNAFK ]Y]
Result: 1.8
